experiment: Toxicity against human erythrocytes assessed as hemolytic activity at 1000 ug/ml; format: cell-based, Erythrocyte; details: read-out: Activity
# strict inequality: hemolysis at 1000 ug/ml < 2% yields YES, everything else yields NO

> print(dat)
                         compound.structure  discrete.label
1  O=C1O[C@H]2Cc3ccccc3[C@H]2NC(=O)c2cccc(n2)C(=O)N[C@@H]2c3ccccc3C[C@@H]2OC(=O)C2=CC=C1S2              NO
2  O=C1O[C@H]2Cc3ccccc3[C@H]2NC(=O)c2cccc(c2)C(=O)N[C@@H]2c3ccccc3C[C@@H]2OC(=O)C2=CC=C1S2             YES
3  O=C1N[C@@H]2c3ccccc3C[C@@H]2OC(=O)c2cccc(c2)C(=O)O[C@H]2Cc3ccccc3[C@H]2NC(=O)c2cccc1c2             YES
4  O=C1N[C@@H]2c3ccccc3C[C@@H]2OC(=O)c2cccc(n2)C(=O)O[C@H]2Cc3ccccc3[C@H]2NC(=O)c2cccc1n2             YES
5  O=C1O[C@H]2Cc3ccccc3[C@H]2NC(=O)c2cccc(n2)C(=O)N[C@@H]2c3ccccc3C[C@@H]2OC(=O)c2cccc1c2              NO

###

assay: Toxicity against human erythrocytes assessed as hemolytic activity at 2000 ug/ml; format: cell-based, Erythrocyte; conditions: read-out: Activity
property_measured: hemolysis at 2000 ug/ml

> print(dat)
                         compound.structure        property.measured  recorded.measurement
1  O=C1O[C@H]2Cc3ccccc3[C@H]2NC(=O)c2cccc(n2)C(=O)N[C@@H]2c3ccccc3C[C@@H]2OC(=O)c2cccc1c2  hemolysis at 2000 ug/ml                    6%
2  O=C1N[C@@H]2c3ccccc3C[C@@H]2OC(=O)c2cccc(c2)C(=O)O[C@H]2Cc3ccccc3[C@H]2NC(=O)c2cccc1c2  hemolysis at 2000 ug/ml                  0.5%
3  O=C1O[C@H]2Cc3ccccc3[C@H]2NC(=O)c2cccc(c2)C(=O)N[C@@H]2c3ccccc3C[C@@H]2OC(=O)C2=CC=C1S2  hemolysis at 2000 ug/ml                    4%
4  O=C1N[C@@H]2c3ccccc3C[C@@H]2OC(=O)c2cccc(n2)C(=O)O[C@H]2Cc3ccccc3[C@H]2NC(=O)c2cccc1c2  hemolysis at 2000 ug/ml                    4%
5  O=C1N[C@@H]2c3ccccc3C[C@@H]2OC(=O)c2cccc(n2)C(=O)O[C@H]2Cc3ccccc3[C@H]2NC(=O)c2cccc1n2  hemolysis at 2000 ug/ml                    1%
6  O=C1O[C@H]2Cc3ccccc3[C@H]2NC(=O)c2cccc(n2)C(=O)N[C@@H]2c3ccccc3C[C@@H]2OC(=O)C2=CC=C1S2  hemolysis at 2000 ug/ml                    6%

###

Listing of recorded hemolysis at 250 ug/ml by entry.
assay: Toxicity against human erythrocytes assessed as hemolytic activity at 250 ug/ml; assay type: cell-based, Erythrocyte; conditions: read-out: Activity
property_measured: hemolysis at 250 ug/ml (%)

> print(dat)
                         compound.structure       property.measured  recorded.measurement
1  O=C1N[C@@H]2c3ccccc3C[C@@H]2OC(=O)c2cccc(c2)C(=O)O[C@H]2Cc3ccccc3[C@H]2NC(=O)c2cccc1c2  hemolysis at 250 ug/ml                     0
2  O=C1N[C@@H]2c3ccccc3C[C@@H]2OC(=O)c2cccc(n2)C(=O)O[C@H]2Cc3ccccc3[C@H]2NC(=O)c2cccc1c2  hemolysis at 250 ug/ml                     0
3  O=C1O[C@H]2Cc3ccccc3[C@H]2NC(=O)c2cccc(n2)C(=O)N[C@@H]2c3ccccc3C[C@@H]2OC(=O)c2cccc1c2  hemolysis at 250 ug/ml                     0
4  O=C1O[C@H]2Cc3ccccc3[C@H]2NC(=O)c2cccc(c2)C(=O)N[C@@H]2c3ccccc3C[C@@H]2OC(=O)C2=CC=C1S2  hemolysis at 250 ug/ml                     0
5  O=C1N[C@@H]2c3ccccc3C[C@@H]2OC(=O)c2cccc(n2)C(=O)O[C@H]2Cc3ccccc3[C@H]2NC(=O)c2cccc1n2  hemolysis at 250 ug/ml                     0
6  O=C1O[C@H]2Cc3ccccc3[C@H]2NC(=O)c2cccc(n2)C(=O)N[C@@H]2c3ccccc3C[C@@H]2OC(=O)C2=CC=C1S2  hemolysis at 250 ug/ml                   0.5

Data provenance is ChEMBL document CHEMBL1149764.
